Experiment: in vivo
Conditions: male, Wistar Han, rat, in vivo; day 1; single IM Example 43A 60 mg/kg; read-out: Mean concentration of Example 43A
MEASUREMENT_TYPE: concentration at 1 day (ng/mL)
Report the figure in ng/mL without appending any unit label.

Input: Requested field: concentration at 1 day. Item: C#C[C@]1(COP(=O)(N[C@@H](Cc2ccccc2)C(=O)OCCCCCCCCCCCCCCCCCCCC)Oc2ccccc2)O[C@@H](n2cnc3c(N)nc(F)nc32)C[C@@H]1O (single isomer, unassigned) [Example 43A]
Output: 89.3

###

Experiment: in vivo
Settings: male, Wistar Han, rat, in vivo; day 1; single IM Example 19A 55 mg/kg; read-out: Mean concentration of Example 19A
MEASUREMENT_TYPE: concentration at 1 day (ng/mL)
Could you give me the number in ng/mL? Just the number is fine.

Input: # get_value(readout='concentration at 1 day', item= C#C[C@]1(COP(=O)(N[C@@H](Cc2ccccc2)C(=O)OCCCCCCCCCCCCCCC)Oc2ccccc2)O[C@@H](n2cnc3c(N)nc(F)nc32)C[C@@H]1O (single isomer, unassigned) [Example 19A] )
Output: 2.37
